Property: Kd; scope: individual compounds
# assayed-target: full-length C1r (Homo sapiens)
# Construct: purchased Complement Technology (CompTech)
# Sequence (P00736 18-463 limits assumed): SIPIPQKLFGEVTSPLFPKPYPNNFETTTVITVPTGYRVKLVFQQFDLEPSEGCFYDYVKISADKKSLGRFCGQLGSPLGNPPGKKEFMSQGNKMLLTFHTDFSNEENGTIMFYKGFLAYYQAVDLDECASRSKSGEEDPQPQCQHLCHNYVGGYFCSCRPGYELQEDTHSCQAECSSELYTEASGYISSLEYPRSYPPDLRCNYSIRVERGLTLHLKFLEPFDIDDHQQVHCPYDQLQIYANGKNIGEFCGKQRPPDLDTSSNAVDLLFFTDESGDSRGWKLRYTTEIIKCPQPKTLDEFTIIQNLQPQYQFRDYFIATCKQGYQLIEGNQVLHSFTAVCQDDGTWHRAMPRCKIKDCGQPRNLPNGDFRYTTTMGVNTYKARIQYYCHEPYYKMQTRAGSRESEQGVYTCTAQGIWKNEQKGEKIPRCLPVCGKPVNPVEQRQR
# Sequence (P00736 464-705 limits assumed): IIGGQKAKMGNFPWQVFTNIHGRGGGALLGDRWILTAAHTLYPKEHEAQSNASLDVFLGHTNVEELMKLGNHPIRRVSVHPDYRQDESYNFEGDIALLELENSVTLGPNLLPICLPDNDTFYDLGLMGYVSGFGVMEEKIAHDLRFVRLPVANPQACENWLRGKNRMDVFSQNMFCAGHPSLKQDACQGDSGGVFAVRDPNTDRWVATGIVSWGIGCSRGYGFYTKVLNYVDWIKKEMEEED
# method-notes: SPR dose-dependent binding, steady-state affinity
# experimental-setup: 1:1 steady-state binding model; mean ± S.D. from three independent injection series; 25 °C
# Method: All SPR experiments were carried out using a Biacore T200 (GE Healthcare, Chicago, IL, USA) at 25 °C. For all experiments, a running buffer (HBS-T) of 20 mM HEPES (pH 7.3), 140 mM NaCl, 0.005% (v/v) Tween-20, 5% DMSO (v/v) was used. […] All sensorgrams were reference and blank subtracted and analyzed using T200 Evaluation Software (GE Healthcare, Chicago, IL, USA). […]
Don't forget the unit after the value.

>>> measurement("N=C(N)c1ccc2cc(OC(=O)c3ccc(N=C(N)N)cc3)ccc2c1 [Futhan, reference compound]")
"11 µM"

Request: Given "COCc1nc(-c2ccc(OC3CNC3)cc2)no1" , state its recorded Kd.
Response: 670 µM

Where do these numbers come from? They come from paper PMC7504721.
